Value source: paper PMC3006453

target: AtMTAN1-Glu202Gln (Arabidopsis thaliana, UniProt Q9T0I8, E202Q); assay: Isothermal titration calorimetry, ligand binding to AtMTAN1-Glu202Gln mutant
Sequence (Q9T0I8 whole entry E202Q): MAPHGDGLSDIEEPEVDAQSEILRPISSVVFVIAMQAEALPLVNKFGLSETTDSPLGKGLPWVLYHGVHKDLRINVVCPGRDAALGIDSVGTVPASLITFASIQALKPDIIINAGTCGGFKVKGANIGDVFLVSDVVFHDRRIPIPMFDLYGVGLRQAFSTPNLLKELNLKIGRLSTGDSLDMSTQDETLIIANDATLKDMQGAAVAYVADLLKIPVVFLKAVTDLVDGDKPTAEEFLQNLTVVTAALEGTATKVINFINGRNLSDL
endpoint name: Kd

// recorded Kd for `Nc1ncnc2c1ncn2[C@@H]1O[C@H](CSCC[C@H](N)C(=O)O)[C@@H](O)[C@H]1O` : > 600 µM

----------
biological target: AtMTAN1 (Arabidopsis thaliana)
endpoint name: pKd
Lab note: report pKd as minus log10 of the concentration in molar units, number only.

pKd in this record for Nc1ncnc2[nH]cnc12 [ADE, adenine] : 5.77
